testedOn: recombinant human IL-6 (human, UniProt P05231 30-212)
Sequence (P05231 30-212 limits assumed): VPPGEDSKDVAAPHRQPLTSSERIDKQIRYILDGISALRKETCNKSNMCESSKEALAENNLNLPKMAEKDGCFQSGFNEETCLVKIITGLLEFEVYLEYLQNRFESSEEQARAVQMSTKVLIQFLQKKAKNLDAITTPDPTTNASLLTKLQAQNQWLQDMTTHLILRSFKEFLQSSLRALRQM
experimentDescription: SPR, IL-6 on CM5 chip, Fab lysate, 25 C
assayReadout: koff (s⁻¹)
Express it in s⁻¹; write the number only.

anti-IL-6 Fab, heavy chain I108S (Fab, V domains shown) VH: EVQLVESGGGLVQPGGSLRLSCAASGFTFSPFAMSWVRQAPGKGLEWVAKISPGGSWTYYSDTVTGRFTFSLDTSKSTAYLQMNSLRAEDTAVYYCARQLWGYYALDSWGQGTLVTVSS VL: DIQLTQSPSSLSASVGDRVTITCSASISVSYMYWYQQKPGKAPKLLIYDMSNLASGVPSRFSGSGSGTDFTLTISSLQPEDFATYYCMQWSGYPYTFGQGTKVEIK ... 0.00352

Alright, here's another binder for you.
# input Could you tell me which koff is on file for anti-IL-6 Fab, light chain I27W (Fab, V domains shown, see m39) VH: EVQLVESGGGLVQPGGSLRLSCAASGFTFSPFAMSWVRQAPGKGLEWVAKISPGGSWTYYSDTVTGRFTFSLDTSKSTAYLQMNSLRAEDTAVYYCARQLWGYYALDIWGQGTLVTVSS VL: DIQLTQSPSSLSASVGDRVTITCSASWSVSYMYWYQQKPGKAPKLLIYDMSNLASGVPSRFSGSGSGTDFTLTISSLQPEDFATYYCMQWSGYPYTFGQGTKVEIK ?
# output 0.00569

meta.source: patent US20240209076A1
